Value source: paper PMC6261661

biological target: UniProtKB P56450; test: Antagonist Schild analysis against agonist MTII at mMC4R; assay type: cell-based; details: Ant = antagonist; SA = some stimulatory activity at 100 µM
Sequence (P56450 whole entry): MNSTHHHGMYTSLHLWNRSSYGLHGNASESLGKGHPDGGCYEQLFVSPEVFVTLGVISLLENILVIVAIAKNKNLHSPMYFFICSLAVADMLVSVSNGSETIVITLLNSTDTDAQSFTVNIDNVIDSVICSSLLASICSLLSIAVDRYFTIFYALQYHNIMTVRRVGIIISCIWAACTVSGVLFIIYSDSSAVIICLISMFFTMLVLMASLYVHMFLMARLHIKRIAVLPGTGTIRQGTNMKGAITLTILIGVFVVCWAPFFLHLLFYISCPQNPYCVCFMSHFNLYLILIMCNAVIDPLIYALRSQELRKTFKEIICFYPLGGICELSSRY
Square brackets hold non-standard residues; d marks the D form. Peptide text beside a SMILES is read from it. dPhe(4-I) = N[C@H](Cc1ccc(I)cc1)C(=O)O; Bta = N[C@@H](Cc1csc2ccccc12)C(=O)O; 3Pal = N[C@@H](Cc1cccnc1)C(=O)O
endpoint: mMC4R pharmacology class printed in Fold Diff. column (Ant, SA)

molecule="CC(=O)N[C@@H](Cc1c[nH]cn1)C(=O)N[C@H](Cc1ccc(I)cc1)C(=O)N[C@@H](CCCNC(=N)N)C(=O)N[C@@H](Cc1csc2ccccc12)C(N)=O [Peptide 30, Ac-His-(pI)DPhe-Arg-3Bal-NH2] (Ac-H[dPhe(4-I)]R[Bta]-NH2)" meas_value="SA Ant"
molecule="CC(=O)N[C@@H](Cc1cccnc1)C(=O)N[C@H](Cc1ccc(I)cc1)C(=O)N[C@@H](CCCNC(=N)N)C(=O)N[C@@H](Cc1c[nH]c2ccccc12)C(N)=O [Peptide 12, Ac-3PAL-(pI)DPhe-Arg-Trp-NH2] (Ac-[3Pal][dPhe(4-I)]RW-NH2)" meas_value="SA Ant"
